Recorded koff for the following binders
Target: T1, factor H binding protein (fHbp) variant 1.1 (Neisseria meningitidis MC58, fHbp v1.1, strain)
T1 construct: also called fHbp v1.1; fHbp v1; source: E. coli BL21(DE3), purified (Ni-NTA; SEC when necessary)
T1 chain: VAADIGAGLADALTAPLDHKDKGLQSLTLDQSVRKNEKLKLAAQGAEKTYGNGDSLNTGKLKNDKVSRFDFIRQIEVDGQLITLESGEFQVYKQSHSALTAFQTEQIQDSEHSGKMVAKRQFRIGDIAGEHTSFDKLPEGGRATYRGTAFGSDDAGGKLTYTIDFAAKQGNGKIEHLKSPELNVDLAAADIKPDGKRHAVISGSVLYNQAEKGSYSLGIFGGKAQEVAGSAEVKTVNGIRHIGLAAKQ
Assay: SPR
Conditions: both partners purified
Kindly provide the numeric value in s⁻¹ only, without the unit symbol.

Reference set, count: 4
- binder: "human anti-fHbp mAb 3B7 (antibody, V domains shown, source: Expi293, transient transfection, purified (protein G Sepharose)) VH: EVQLVQSGAEVKKPGSSVKVSCKASGDTFSNYPISWVRQAPGQGLEWMGGIIPIFGTANYAQKFQGRVTITADESTSTPYMELSSLRSEDTAVYYCARGDTAMAPFDYWGQGTLVTVSS VL: SYVLTQPPSVSVAPGKTARITCGGNSIGSKSVHWYQQKPGQAPVLVIYYDSDRPSGVPERISGSNSGNTATLTISRVEAGDEADYYCQVWDSSSDSWVFGGGTKLTVL"
  readout unit: "s⁻¹"
  koff: 0.00442
- binder: "human anti-fHbp mAb 5F12 (antibody, V domains shown, source: Expi293, transient transfection, purified (protein G Sepharose)) VH: EVQLVESGGDLVKPGGSLRLSCAASGFTFSNYTMNWVRQAPGKGLEWVSSITSSSSFKYYADSVKGRFTISRDNAKNSVFLQMNSLRAEDTAIYYCARRIDSSDQDWFYYYGMDVWGLGTTVTVSS VL: QSVLTQPPSVSAAPGQRVTISCSGSSSNIGDNYISWYQQLPGTAPKLLIYDNDQRPSGTPDRFSASKSGTSATLGVTGLQTGDEADYYCGTWDSSLNAPVFGSGTKVTVL"
  readout unit: "s⁻¹"
  koff: 0.000846
- binder: "human anti-fHbp mAb 4B10 (antibody, V domains shown, source: Expi293, transient transfection, purified (protein G Sepharose)) VH: EVQLVESGGGLVKPGGSLRLSCAASGFAFSTYSLHWVRQAPGKGLEWVSAITSSGSFLYYADSLKGRFTVSRDNAKNSLFLQMNSLRAGDTAVYYCARALQVEDGFPMFSGLDVWGQGTTVTVSS VL: QTVVTQPPSVSEAPRQRVAISCSGSSSNIGDNSVSWYQQLPGKAPKLLIYDDDLLPSGVSDRFSASKSGTSASLAISGLQSEDEAEYYCAAWDDSLKGVVFGGGTKLTVL"
  readout unit: "s⁻¹"
  koff: 0.0025
- binder: "human anti-fHbp mAb 4F9 (antibody, V domains shown, source: Expi293, transient transfection, purified (protein G Sepharose)) VH: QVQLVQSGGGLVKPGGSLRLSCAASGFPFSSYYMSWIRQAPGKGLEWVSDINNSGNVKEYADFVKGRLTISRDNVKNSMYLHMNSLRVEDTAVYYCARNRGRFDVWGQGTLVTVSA VL: EIVMTQSPGTLSLSPGETATLSCRASQMISSPFLAWYQQRRGQAPRLLIYGASTRATDTPDRFRGSGSGTDFILTISRLEPEDFAVYYCQHYDDSPFTFGQGTKLEIK"
  readout unit: "s⁻¹"
  koff: 0.00251

koff reported for this binder human anti-fHbp mAb 1E10 (antibody, V domains shown, source: Expi293, transient transfection, purified (protein G Sepharose)) VH: QVQLVESGGDLVKPGGSLRLSCVASGFTFSSYTMNWVRQAPGKGLEWVSSITSSSSFTYYADSVKGRFIISRDNAKNSLSLQMNNLRVEDTATYYCARRKDSSDYDWYYYYGMDVWGLGTTVTVSS VL: QSVVTQPPSVSAAPGQKVTISCSGSSSNIGDNYMSWYQQIPGTAPKLLIFDNDQRPSGIPDRFSASKSGTSATLDITGFQTGDEADYYCGTWDSGLSAPVFGGGTKLTVL : 0.000657
